For each entry below, report its Λ max (absorption maximum wavelength) value.
Assay: Absorption coefficient (absorbance of 0.001% solution in tetrahydrofuran)
Type: physicochemical
Settings: 0.001% (wt/vol) in tetrahydrofuran; from 280 nm to 400 nm
Numbers only, in nm.

Take a look at these entries with their results.
compound	Λ max (absorption maximum wavelength) / nm
CCCCCCC1(CCCCCC)c2cc(C(=O)C(=NOC(C)=O)c3cc(C)ccc3C)ccc2-c2ccc(C(=O)c3ccc([N+](=O)[O-])cc3)cc21 [Compound 13]	338.5
CCCC1(CCC)c2cc(C(=O)C(CCSc3ccc(Cl)cc3)=NOC(C)=O)ccc2-c2ccc([N+](=O)[O-])cc21 [Compound D-15]	346.0
CC(=O)ON=C(C)c1ccc2c(c1)Cc1ccccc1-2 [Compound 16]	296.5

Fill in Λ max (absorption maximum wavelength) for each of the 6 compounds listed.
1. CCn1c2ccc(/C(=N\OC(C)=O)c3ccc(OC(C)COC)cc3C)cc2c2cc([N+](=O)[O-])ccc21 (stereo not shown) [Compound C-2, reference compound]
2. CCn1c2ccc(C(=O)c3ccccc3C)cc2c2cc(/C(C)=N/OC(C)=O)ccc21 [Compound C-1, reference compound]
3. CCCC1(CCC)c2cc(C(CCCCl)=NOC(C)=O)ccc2-c2ccc([N+](=O)[O-])cc21 [Compound D-12]
4. CCCCCCC1(CCCCCC)c2cc(C(=O)c3ccc([N+](=O)[O-])cc3)ccc2-c2ccc(C(CC(C)N(OC(C)=O)C(C)=O)=NOC(C)=O)cc21 (racemic) [Compound 12]
5. CCCC1(CCC)c2cc(C(=O)/C(C)=N/OC(C)=O)ccc2-c2ccc(C(=O)c3ccc([N+](=O)[O-])cc3)cc21 [Compound D-9]
6. CCCCCCC1(CCCCCC)c2cc(C(=O)c3ccc(F)cc3)ccc2-c2ccc(/C(CC(C)N(OC(C)=O)C(C)=O)=N\OC(C)=O)cc21 (stereo not shown) [Compound 9]

(A)
369.0
298.5
345.5
335.5
343.0
330.0

Fill in Λ max (absorption maximum wavelength) for each of the 4 compounds listed.
1. CCCCCCC1(CCCCCC)c2cc(C(=O)c3cccs3)ccc2-c2ccc(C(CC(C)N(OC(C)=O)C(C)=O)=NOC(C)=O)cc21 (racemic) [Compound 11]
2. CCCC1(CCC)c2cc(C(CCCSc3ccc(Cl)cc3)=NOC(C)=O)ccc2-c2ccc([N+](=O)[O-])cc21 [Compound D-14]
3. CCCC1(CCC)c2cc(C(=NOC(C)=O)c3ccccc3)ccc2-c2ccc([N+](=O)[O-])cc21 [Compound D-1]
4. CCCC1(CCC)c2cc(C(=O)c3ccccc3C)ccc2-c2ccc(/C(C)=N/OC(C)=O)cc21 [Compound 4]

(A)
333.5
345.5
343.5
330.5

Values compiled from patent US9684238B2.
